Reported MIC values are given for each entry in this list.
# Test system: ten different M. mycetomatis isolates
# test_details: MIC / MIC50 determination (XTT) in ten M. mycetomatis isolates
# Type: cell-based, Madurella mycetomatis
# settings: Madurella mycetomatis; isolate MM55; read-out: MIC MM55
test_readout: MIC (µM)

molecule=COC(=O)Nc1nc2ccccc2[nH]1 value_qualifier== recorded_number=0.5
molecule=COC(=O)Nc1nc2ccc(Sc3ccccc3)cc2[nH]1 value_qualifier== recorded_number=0.5
molecule="CCC(C)(C)c1ccc(CC(C)CN2C[C@@H](C)O[C@@H](C)C2)cc1 (some centres unmarked) [MMV1634358, Amorolfine, reference compound]" value_qualifier== recorded_number=2
molecule="Clc1cc(Cl)c2c(c1)CCc1ccccc1C2n1ccnc1 (centres unmarked) [MMV1634492, Eberconazole, reference compound]" value_qualifier== recorded_number=0.5
molecule="N#C/C(=C1/SC[C@@H](c2ccc(Cl)cc2Cl)S1)n1ccnc1 [MMV1782224, Luliconazole, reference compound]" value_qualifier=< recorded_number=0.0312
molecule="CCN(CC)CCn1c(=N)n(CC(O)COc2ccc(Cl)cc2Cl)c2ccccc21 (centres unmarked)" value_qualifier=> recorded_number=16
molecule=O=S(=O)(Nc1ccc(-n2cccc2)cc1)c1ccc(Cl)c(Cl)c1 value_qualifier== recorded_number=16
molecule="Oc1c(C(Nc2nc3ccccc3s2)c2ccc(OC(F)F)cc2)ccc2cccnc12 (centres unmarked)" value_qualifier== recorded_number=8
molecule="O[C@@](Cn1cnnn1)(c1ccc(F)cc1F)C(F)(F)c1ccc(-c2ccc(OCC(F)(F)F)cc2)cn1 [MMV1634386, Oteseconazole, reference compound]" value_qualifier== recorded_number=4
molecule=COC(=O)Nc1nc2c(C)cccc2[nH]1 value_qualifier== recorded_number=4
molecule="CCCCC(CC)CNC(=N)NC(=N)NCCCCCCNC(=N)NC(=N)NCC(CC)CCCC (centres unmarked) [MMV396785, Alexidine, reference compound]" value_qualifier== recorded_number=2
molecule="Clc1ccc(COC(Cn2ccnc2)c2ccc(Cl)cc2Cl)c(Cl)c1 (centres unmarked)" value_qualifier== recorded_number=0.25
molecule="COc1cc(C)c2c(Oc3cccc(C(F)(F)F)c3)c(OC)cc(NC(C)CCCN)c2n1 (centres unmarked) [MMV000043, Tafenoquine, reference compound]" value_qualifier== recorded_number=4
molecule=O=C(/C(=C/c1ccc(Cl)cc1Cl)n1ccnc1)c1ccc(Cl)cc1 value_qualifier== recorded_number=4
